A short record of IC50 observed with UniProt:P07254 follows.
Sequence (P07254 whole entry): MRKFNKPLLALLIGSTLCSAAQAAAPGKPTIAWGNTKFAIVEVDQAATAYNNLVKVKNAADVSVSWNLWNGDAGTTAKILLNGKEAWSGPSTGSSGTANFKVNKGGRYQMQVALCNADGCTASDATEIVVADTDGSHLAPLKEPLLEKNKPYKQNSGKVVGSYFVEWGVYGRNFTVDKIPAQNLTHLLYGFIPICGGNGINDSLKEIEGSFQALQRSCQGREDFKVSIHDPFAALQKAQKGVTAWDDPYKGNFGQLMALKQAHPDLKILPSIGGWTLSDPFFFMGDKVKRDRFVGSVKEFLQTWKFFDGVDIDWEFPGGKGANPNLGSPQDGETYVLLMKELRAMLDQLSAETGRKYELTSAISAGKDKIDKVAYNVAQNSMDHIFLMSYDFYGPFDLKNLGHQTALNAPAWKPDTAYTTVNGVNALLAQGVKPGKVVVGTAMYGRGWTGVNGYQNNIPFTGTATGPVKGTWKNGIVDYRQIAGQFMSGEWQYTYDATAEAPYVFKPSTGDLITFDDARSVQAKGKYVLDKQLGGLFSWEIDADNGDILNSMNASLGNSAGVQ
*1 amine or outer side, *2 acyl side, *3 side chain or, on linkers, in order; H or OH if unused. Where a SMILES comes first, the peptide text is derived from it. Side-chain parts run from the residue outwards. [ ]: non-standard residue; d: D form. The star is where a group is joined. NMeF = CN[C@@H](Cc1ccccc1)C(=O)O; CO = O=C([*:1])[*:2]; OAll = C=CCO*
Hey, just the number and the unit after it is fine.

Find the recorded IC50 belonging to C=CCOC(=O)C[C@H](NC(=O)[C@H](Cc1ccccc1)N(C)C(=O)[C@H](CCCNC(=N)NC(=O)NC)NC(C)=O)C(=O)O (Ac-Arg([CO-NHMe])-[NMeF]-Asp(OAll)-OH) and report it.
140 nM

Reported IC50 for CNC(=O)NC(=N)NCCC[C@@H]1NC(=O)[C@@H](C)NC(=O)C[C@@H](C(=O)O)NC(=O)C[C@@H](C(=O)O)NC(=O)[C@H](Cc2ccccc2)N(C)C1=O : what is it?
25 nM

Would you mind telling me what IC50 value was observed for C=CCOC(=O)C[C@H](NC(=O)[C@H](Cc1ccccc1)N(C)C(=O)[C@H](CCCNC(=N)NC(=O)NC)NC(=O)[C@@H](C)NC(C)=O)C(=O)O ?
25 nM

Consider the compound CNC(=O)NC(=N)NCCC[C@H](NC(=O)[C@@H](C)NC(C)=O)C(=O)N(C)[C@@H](Cc1ccccc1)C(=O)O and give its measured IC50.
90 nM

Give its IC50 value. Item: CNC(=O)NC(=N)NCCC[C@H](NC(C)=O)C(=O)N(C)[C@@H](Cc1ccccc1)C(=O)O
750 nM

Please look up its IC50: C=CCOC(=O)C[C@H](NC(=O)[C@H](Cc1ccccc1)N(C)C(=O)[C@H](CCCN=C(N)NC(=O)NC)NC(=O)[C@@H](C)NC(=O)[C@H](CC(=O)O)NC(C)=O)C(=O)O
1100 nM

Further cases:
Reported IC50 for CNC(=O)NC(=N)NCCC[C@H](NC(=O)[C@@H](C)NC(=O)[C@H](CC(=O)O)NC(C)=O)C(=O)N(C)[C@@H](Cc1ccccc1)C(=O)O : what is it?
8400 nM
